Test system: TRPN1 (NOMPC) [Danio rerio]
method: activators of TRPN1 (NOMPC) cation channel – cell-based, HEK293 TRPN1-YFP, Fluo-8 calcium, counter-screen for TRPML3 agonist project (AID 1525);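 further: 100% = carbachol and 0% = 0.3% DMSO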
experimental context: HEK293 zebrafish TRPN1-YFP, Fluo-8 calcium fluorescence; at 3 µM; active compounds read high; scaled: carbachol wells 100%, DMSO wells 0%
The list shows a part of the results.
assay endpoint: activation (%)
Your answer should be a plain number; it is taken to be in %.

Give the measured activation of CC1=CC(C)(C)N(C(=O)CSc2nnc(-c3ccccc3)o2)c2ccc(C)cc21 .
0.12

Repeat for the following compound: COc1ccc(Cl)cc1N(CC(=O)N1CCCCC1)S(C)(=O)=O
2.78

Repeat for the following compound: COc1ccc(-c2noc(CN(C)S(=O)(=O)c3ccc(C)cc3)n2)cc1
5.96

Repeat for the following compound: COc1ccc(N(CCC#N)S(=O)(=O)c2ccc(Cl)cc2)cc1
0.61

Repeat for the following compound: c1ccc2c(C[n+]3csc4ccccc43)cccc2c1
-0.03

Repeat for the following compound: CCN(CC)S(=O)(=O)c1ccc2c3c(cccc13)C(=O)S2
-0.76

Repeat for the following compound: CC1CCCC(C)N1C(=O)CN1CCN(c2nc(-c3ccc(F)cc3)cs2)CC1 (stereo not drawn)
4.68

Repeat for the following compound: CCN(CC)C(=O)CC1(c2ccccc2OC)CCOC(C(C)C)C1 (stereo not drawn)
-1.47

Repeat for the following compound: C=C(C)Cn1c(C)cc(C)c(S(=O)(=O)c2ccccc2C)c1=O
-3.19

Repeat for the following compound: O=S(=O)(Nc1ccccc1N1CCOCC1)c1ccc(Cl)s1
0.07

Repeat for the following compound: COc1cc(/C=C(\C#N)c2nc3c(s2)CC(C)CC3)ccc1O (stereo not drawn)
14

Repeat for the following compound: O=C(CC(O)(C(F)(F)F)C(F)(F)F)Nc1ccc(Cl)c(Cl)c1
21.3

Repeat for the following compound: Cc1cccc(C)c1N1CCN(S(=O)(=O)N2CCCCC2)CC1
28.3
